# TESTED ON: EPAC2 (Mus musculus)
# ASSAY PROCEDURE: 8-NBD-cAMP competition binding to EPAC2
# TEST CONTEXT: read-out: Apparent IC50; competing with 8-NBD-cAMP in binding EPAC2
QUANTITY MEASURED: pIC50
Lab note — pIC50 values are minus log10 of concentrations in M.

IN: Assign pIC50 to the following record: CC(C)(C)c1cc(C(=O)C(C#N)=NNc2cccc(Cl)c2)no1
OUT: 5.00

---

# TESTED ON: EPAC1 (Homo sapiens)
# Sequence (O95398 1-923): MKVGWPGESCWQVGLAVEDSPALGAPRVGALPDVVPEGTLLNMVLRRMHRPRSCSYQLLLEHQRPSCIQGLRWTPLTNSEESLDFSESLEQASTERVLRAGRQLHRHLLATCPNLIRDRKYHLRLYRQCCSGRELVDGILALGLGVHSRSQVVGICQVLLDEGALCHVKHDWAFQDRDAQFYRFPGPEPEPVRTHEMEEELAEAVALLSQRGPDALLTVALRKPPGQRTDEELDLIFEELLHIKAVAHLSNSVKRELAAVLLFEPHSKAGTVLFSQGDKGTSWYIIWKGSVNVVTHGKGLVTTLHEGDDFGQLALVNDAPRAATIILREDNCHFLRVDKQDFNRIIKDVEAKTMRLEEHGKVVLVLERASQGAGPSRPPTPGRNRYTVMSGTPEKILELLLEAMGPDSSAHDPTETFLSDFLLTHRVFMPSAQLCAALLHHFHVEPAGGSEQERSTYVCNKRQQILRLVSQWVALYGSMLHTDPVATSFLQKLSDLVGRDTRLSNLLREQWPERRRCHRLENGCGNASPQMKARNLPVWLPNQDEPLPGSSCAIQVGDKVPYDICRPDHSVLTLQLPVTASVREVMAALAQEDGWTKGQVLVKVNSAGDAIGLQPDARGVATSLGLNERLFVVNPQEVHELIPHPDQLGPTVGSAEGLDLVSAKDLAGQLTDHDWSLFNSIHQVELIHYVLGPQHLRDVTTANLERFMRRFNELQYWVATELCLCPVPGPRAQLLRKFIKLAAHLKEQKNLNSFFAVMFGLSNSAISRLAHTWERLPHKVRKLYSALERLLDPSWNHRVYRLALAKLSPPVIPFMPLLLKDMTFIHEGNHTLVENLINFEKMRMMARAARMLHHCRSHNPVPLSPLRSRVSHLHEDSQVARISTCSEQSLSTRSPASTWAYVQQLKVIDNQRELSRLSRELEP
QUANTITY MEASURED: pIC50
Lab note — pIC50 values are minus log10 of concentrations in M.

IN: Supply pIC50 measured with EPAC1 (Homo sapiens) for CC(C)(C)c1cc(C(=O)C(C#N)=NNc2cccc(Cl)c2)no1 [ESI-09] .
OUT: 5.49

---

# TESTED ON: EPAC2 (Mus musculus)
# ASSAY PROCEDURE: 8-NBD-cAMP competition binding to EPAC2
# TEST CONTEXT: competing with 8-NBD-cAMP in binding EPAC2; read-out: Apparent IC50
# Experimental: Primary screen is performed in black 96-well or 384-well microplates. As an example, 50 nM EPAC2 solution is prepared in 20 mM Tris buffer, pH 7.5, containing 150 mM NaCl, 1 mM EDTA, and 1 mM DDT. […] Fluorescence intensity signal from 8-NBD was recorded at room temperature (rt) before and after tested compounds are added using SpectaMaxM2 microplate reader (Molecular Devices, Silicon Valley, Calif., USA) with excitation/emission wavelengths set at 470/540 nm.
QUANTITY MEASURED: IC50 (µM)
Expressed in µM, but write only the number.

IN: Assign IC50 to the following record: Cc1ccc(C)c(CSc2nc(C3CCCCC3)c(C#N)c(=O)[nH]2)c1
OUT: 8.7

Values from patent US9539256B2
